I'd appreciate it if you could supply IC50 values for the items below.
Target: Delta-5-Desaturase (D5D) (Homo sapiens (Human), UniProt O60427)
Sequence (O60427 whole entry, species assumed): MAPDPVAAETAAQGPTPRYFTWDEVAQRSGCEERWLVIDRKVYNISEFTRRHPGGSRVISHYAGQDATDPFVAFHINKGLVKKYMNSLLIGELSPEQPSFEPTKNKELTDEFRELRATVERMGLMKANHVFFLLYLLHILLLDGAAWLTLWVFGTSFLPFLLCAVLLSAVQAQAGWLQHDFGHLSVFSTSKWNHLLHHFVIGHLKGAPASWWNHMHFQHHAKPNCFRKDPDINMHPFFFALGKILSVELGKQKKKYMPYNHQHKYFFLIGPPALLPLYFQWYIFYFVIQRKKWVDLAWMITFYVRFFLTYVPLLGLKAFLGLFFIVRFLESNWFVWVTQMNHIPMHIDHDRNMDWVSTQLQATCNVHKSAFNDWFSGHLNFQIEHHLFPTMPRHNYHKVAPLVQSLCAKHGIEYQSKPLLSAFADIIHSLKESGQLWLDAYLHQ
Experiment: In vitro measurement of Delta-5-Desaturase inhibitory activity using DGLA-CoA and Arachidonyl-CoA mass spectrometric assays
Settings: membrane preparations of D5D-overexpressing HEK293 6E cells; averaged over at least two independent runs
Description: In vitro Measurement of Delta-5-Desaturase Inhibitory Activity using DGLA-CoA and Arachidonyl-CoA Mass Spectrometric Assays Membrane preparations of D5D-overexpressing HEK293 6E cells were prepared in which the total protein concentration was 5.6 mg/mL. […] DGLA-CoA and Arachidonyl-CoA were detected by multiple reaction monitoring (MRM) of the doubly charged parent ions at m/z 526.6 and 525.6, respectively. […]
Only the number, expressed in nM, is required.

Challenge: Fill in the blank: the reported IC50 of Cc1cc2nc(C(F)(F)F)c(-c3cnn(CCC(F)(F)F)c3)c(=O)n2nc1C [Example 39-47] is ____.
Response given: 65.6

Challenge: Fill in the blank: the reported IC50 of COc1ccn2c(=O)c(-c3ccc(OCC(F)(F)F)cc3F)c(C(F)(F)F)nc2c1 [Example 1-20] is ____.
Response given: 8.9

Challenge: Fill in the blank: the reported IC50 of C=Cc1ccn2c(=O)c(-c3ccc(OCC(F)(F)F)cc3)c(C(F)(F)F)nc2c1 [Example 2-8] is ____.
Response given: 25.4

Challenge: Fill in the blank: the reported IC50 of Cc1cnn2c(=O)c(-c3cnc(OCC(F)(F)F)nc3)c(C(F)(F)F)nc2c1 [Example 39-48] is ____.
Response given: 518

Challenge: Fill in the blank: the reported IC50 of O=c1c(-c2ccc(OCC(F)(F)F)nc2)c(C(F)(F)F)nc2ccccn12 [Example 20] is ____.
Response given: 109

Challenge: Fill in the blank: the reported IC50 of [2H]C([2H])([2H])Oc1ccn2c(=O)c(-c3cnn(CC(F)(F)C(F)(F)F)c3)c(C(F)(F)F)nc2c1 [Example 1-33] is ____.
Response given: 17.3

Challenge: Fill in the blank: the reported IC50 of O=c1c(-c2cnn(CCC(F)(F)F)c2)c(C(F)(F)F)nc2ccc(C3CC3)cn12 [Example 39-22] is ____.
Response given: 2950

====

target: Delta-5-Desaturase (D5D) (Homo sapiens (Human), UniProt O60427); test: In vitro measurement of Delta-5-Desaturase inhibitory activity using DGLA-CoA and Arachidonyl-CoA mass spectrometric assays; settings: membrane preparations of D5D-overexpressing HEK293 6E cells; averaged over at least two independent runs
MEASUREMENT LABEL: IC50 (nM)
Only the number, expressed in nM, is required.

Challenge: Fill in the blank: the reported IC50 of COc1ccn2c(=O)c(-c3ccc(OCC(F)F)cc3)c(C(F)(F)F)nc2c1 [Example 1-10] is ____.
Response given: 7.9

Challenge: Fill in the blank: the reported IC50 of COC(=O)c1ccc2nc(C(F)(F)F)c(-c3cnn(CC(F)(F)C(F)(F)F)c3)c(=O)n2c1 [Example 39-16] is ____.
Response given: 35100

Challenge: Fill in the blank: the reported IC50 of COc1ccn2c(=O)c(-c3ccn(-c4ccccc4)n3)c(C(F)(F)F)nc2c1 [Example 1-3] is ____.
Response given: 371

Challenge: Fill in the blank: the reported IC50 of N#Cc1ccn2c(=O)c(-c3cnn(CC(F)(F)C(F)(F)F)c3)c(C(F)(F)F)nc2c1 [Example 1-27] is ____.
Response given: 18.7

Challenge: Fill in the blank: the reported IC50 of COc1ccn2c(=O)c(-c3ccc(OC[C@@H]4CC4(F)F)cc3)c(C(F)(F)F)nc2c1 (single isomer, unassigned) [Example 1-84] is ____.
Response given: 2.7

Challenge: Fill in the blank: the reported IC50 of COc1ccn2c(=O)c(-c3ccc(OCC#N)cc3)c(C(F)(F)F)nc2n1 [Example 1-40] is ____.
Response given: 18.6

Challenge: Fill in the blank: the reported IC50 of [2H]C([2H])([2H])Oc1ccn2c(=O)c(-c3ccc(OCCF)cc3)c(C(F)(F)F)nc2c1 [Example 1-51] is ____.
Response given: 26.6

Challenge: Fill in the blank: the reported IC50 of O=c1c(-c2cnn(CC(F)(F)C(F)(F)F)c2)c(C(F)(F)F)nc2cnccn12 [Example 39-25] is ____.
Response given: 3.7

Challenge: Fill in the blank: the reported IC50 of O=c1c(-c2cnn(CC(F)(F)C(F)(F)F)c2)c(C(F)(F)F)nc2cc(N3CCC3)ccn12 [Example 1-88] is ____.
Response given: 2350

Challenge: Fill in the blank: the reported IC50 of CCCn1cc(-c2c(C(F)(F)F)nc3cc(OC)ccn3c2=O)cn1 [Example 1-76] is ____.
Response given: 17.6

Challenge: Fill in the blank: the reported IC50 of Cc1ccn2c(=O)c(-c3noc(CCC(F)(F)F)n3)c(C(F)(F)F)nc2c1 [Example 50] is ____.
Response given: 5380

Challenge: Fill in the blank: the reported IC50 of CC[S@+]([O-])c1ccn2c(=O)c(-c3ccc(OCC(F)(F)F)cc3)c(C(F)(F)F)nc2c1 [Example 15-9] is ____.
Response given: 191

Challenge: Fill in the blank: the reported IC50 of COc1ccn2c(=O)c(-c3ccc(OCC(F)(F)F)c(F)c3)c(C(F)(F)F)nc2c1 [Example 1-48] is ____.
Response given: 5.1

Challenge: Fill in the blank: the reported IC50 of Cc1cnn2c(=O)c(-c3cnn(CC4CC4)c3)c(C(F)(F)F)nc2c1 [Example 39-51] is ____.
Response given: 74.3

Challenge: Fill in the blank: the reported IC50 of COc1ccn2c(=O)c(-c3cnc(OCC(F)(F)F)nc3)c(C(F)(F)F)nc2c1 [Example 37] is ____.
Response given: 87.6

Challenge: Fill in the blank: the reported IC50 of COc1ccn2c(=O)c(-c3ccc(OC(C)C#N)cc3)c(C(F)(F)F)nc2c1 (centres unmarked) [Example 8-4] is ____.
Response given: 16.2

Challenge: Fill in the blank: the reported IC50 of CC(C)(O)c1ccn2c(=O)c(-c3cnn(CC(F)(F)C(F)(F)F)c3)c(C(F)(F)F)nc2c1 [Example 39-7] is ____.
Response given: 1430

Challenge: Fill in the blank: the reported IC50 of O=c1c(-c2cnn(CC(F)(F)C(F)(F)F)c2)c(C(F)(F)F)nc2n1CCOC2 [Example 39-34] is ____.
Response given: 30.2

Challenge: Fill in the blank: the reported IC50 of COc1ccn2c(=O)c(-c3ccc(OCC(F)(F)C(F)(F)F)cc3)c(C(F)(F)F)nc2c1 [Example 22] is ____.
Response given: 4

Challenge: Fill in the blank: the reported IC50 of O=c1ccn2c(=O)c(-c3cnn(CC(F)(F)C(F)(F)F)c3)c(C(F)(F)F)nc2n1CF [Example 68] is ____.
Response given: 80.7

Challenge: Fill in the blank: the reported IC50 of [2H]C([2H])([2H])Oc1ccn2c(=O)c(-c3ccc(OCC(F)F)cc3)c(C(F)(F)F)nc2c1 [Example 1-52] is ____.
Response given: 5.6

Challenge: Fill in the blank: the reported IC50 of CC(=O)Nc1ccn2c(=O)c(-c3ccc(OCC(F)(F)F)cc3)c(C(F)(F)F)nc2c1 [Example 1-31] is ____.
Response given: 1720

Challenge: Fill in the blank: the reported IC50 of CNC(=O)c1ccn2c(=O)c(-c3ccc(OCC(F)(F)F)cc3)c(C(F)(F)F)nc2c1 [Example 12-1] is ____.
Response given: 120

Challenge: Fill in the blank: the reported IC50 of CCCc1cc(-c2c(C(F)(F)F)nc3cc(OC)ccn3c2=O)no1 [Example 61] is ____.
Response given: 46.9

Challenge: Fill in the blank: the reported IC50 of COc1cn2c(=O)c(-c3cnn(CC(F)(F)C(F)(F)F)c3)c(C(F)(F)F)nc2cn1 [Example 39-37] is ____.
Response given: 61

Challenge: Fill in the blank: the reported IC50 of O=c1c(-c2cnn(-c3ccccc3)c2)c(C(F)(F)F)nc2ccccn12 [Example 1-43] is ____.
Response given: 45.6

Challenge: Fill in the blank: the reported IC50 of COc1ccn2c(=O)c(-c3ccc(O[C@@H](C)C#N)cc3)c(C(F)(F)F)nc2n1 [Example 8-7] is ____.
Response given: 4910

Challenge: Fill in the blank: the reported IC50 of O=c1c(-c2cnn(CCC(F)(F)F)c2)c(C(F)(F)F)nc2ccc(Cl)cn12 [Example 39-17] is ____.
Response given: 2.4

Challenge: Fill in the blank: the reported IC50 of CNC(=O)c1ccn2c(=O)c(-c3cnn(CC(F)(F)C(F)(F)F)c3)c(C(F)(F)F)nc2c1 [Example 12-5] is ____.
Response given: 313

Challenge: Fill in the blank: the reported IC50 of CN(C)Cc1ccn2c(=O)c(-c3cnn(CC(F)(F)C(F)(F)F)c3)c(C(F)(F)F)nc2c1 [Example 26] is ____.
Response given: 128

Challenge: Fill in the blank: the reported IC50 of COc1ccn2c(=O)c(-c3ccc(OCC(F)(F)F)cc3)c(C(F)F)nc2c1 [Example 1-15] is ____.
Response given: 12.4

Challenge: Fill in the blank: the reported IC50 of Cc1cn2c(=O)c(-c3cnn(CC(F)(F)C(F)(F)F)c3)c(C(F)(F)F)nc2c(C)n1 [Example 39-43] is ____.
Response given: 179

Reference source for all entries: patent US12473289B2
